- Read-out: Tissue Factor, F3 (gene 2152)
- experimental_protocol: BSK_CASM3C_TissueFactor: BioMAP Diversity Plus: CASM3C Assay for Tissue Factor Biomarker Activity (AID 2283052);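 also: cell surface tissue factor protein level read by ELISA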
- applied_conditions: primary human coronary artery smooth muscle cells; actives raise or lower the signal
The source made the active and inactive calls. The calls were made as follows: active = hit-call score of the fitted dose curve at least 0.9, where 1 is the maximum; inactive = score below 0.9.
In this exercise, the only acceptable responses are active, inactive

As a guide, the following entries are already answered.
{"molecule": "Cc1cc(NC(=O)C(=O)O)cc(C)c1Oc1ccc(O)c2c1CCC2", "label_class": "inactive"}
{"molecule": "NC(=O)Cn1c(=O)cc(CCN2CCN(c3nccc4sccc34)CC2)c2ccc(F)cc21", "label_class": "inactive"}
{"molecule": "CC=Cc1ccc(O)c(OC)c1", "label_class": "inactive"}
{"molecule": "CCCCCCCCCCCC(=O)OC", "label_class": "inactive"}
{"molecule": "C1CCC(SSC2CCCCC2)CC1", "label_class": "inactive"}

Query: Write down the call the test reported for this molecule. Item: CCc1c(C(=O)NN2CCCCC2)nn(-c2ccc(Cl)cc2Cl)c1-c1ccc(Br)cc1
Result: inactive

Query: // next record COCCOC[C@H](CC1(C(=O)NC2CCC(C(=O)O)CC2)CCCC1)C(=O)Oc1ccc2c(c1)CCC2 (some centres not stated)
Result: inactive

Query: Also Nc1ccc(S(=O)(=O)c2ccc(N)cc2)cc1 , if possible.
Result: inactive

Query: Please do the same for C[C@]12C=CC(=O)C=C1CC[C@@H]1[C@@H]2C(=O)C[C@@]2(C)[C@H]1CC[C@]2(O)C(=O)CO as well.
Result: inactive

Query: Record: Oc1ccc2ccccc2c1N=Nc1ccccc1
Result: inactive

Query: Next record, please: Cc1ccc(C(C)C)c(O)c1
Result: inactive

Query: # repeat for C=CCOC(=O)c1ccccc1C(=O)OCC=C
Result: inactive

Query: Try the molecule CC(C)c1ccc(C(=O)N=C(N)N)cc1S(C)(=O)=O
Result: inactive

Query: Item: CCCCCCCCCCCCCCCCCC(=O)O
Result: inactive

Query: Another molecule to check: CCOc1ccc2c(c1)C(C)=CC(C)(C)N2
Result: inactive

Query: Okay, and CCCCCC(=O)O ?
Result: inactive

Query: Now consider CN[C@H]1CC[C@@H](c2ccc(Cl)c(Cl)c2)c2ccc(S(N)(=O)=O)cc21 .
Result: active

Query: Same question for FC(F)(F)C(F)(F)C(F)(F)C(F)(F)C(F)(F)C(F)(F)CCI please.
Result: inactive

---

- experimental_protocol: ATG_E_Box_CIS: Attagene CIS-FACTORIAL HepG2 Assay for human Enhancer Box (E-box) (AID 2282936)
- applied_conditions: HepG2 E-box cis-reporter transcription, actives raise or lower the signal
- Method: ATG_CIS is a cell-based, multiplexed-readout assay that uses HepG2, a human liver cell line, with measurements taken at 24 hours after chemical dosing in a 24-well plate.ATG_E_Box_CIS is one of 52 assay component(s) measured or calculated from the ATG_CIS assay. […] This assay endpoint, ATG_E_Box_CIS, was analyzed with bidirectional fitting relative to DMSO as the negative control and baseline of activity. […]
The source made the active and inactive calls. The calls were made as follows: active = hit-call score of the fitted dose curve at least 0.9, where 1 is the maximum; inactive = score below 0.9.
Respond using exactly one of the listed classes: Y = active, N = inactive

{"compound": "CCCCCCCCCCCC(=O)OC", "label_class": "N"}
{"compound": "CC=Cc1ccc(O)c(OC)c1", "label_class": "N"}
{"compound": "Nc1ccc(S(=O)(=O)c2ccc(N)cc2)cc1", "label_class": "N"}

Query: Test call for this compound, please: CNCc1cc(F)ccc1Oc1ccc(Cl)c(Cl)c1
Result: N

Query: What would you report for CC(C)c1ccc(C(=O)N=C(N)N)cc1S(C)(=O)=O ?
Result: N

Query: Let us now turn to CCCc1cc(=O)[nH]c(=S)[nH]1
Result: N

Query: Here is the next compound: O=[N+]([O-])C(CO)(CO)CO
Result: N

Query: Try Cc1ccc(C(C)C)c(O)c1 next.
Result: N
